Several reports have described IC50 for High affinity nerve growth factor receptor (Homo sapiens, UniProt P04629); a selection of those results is presented here.

[
  {
    "molecule": "COCc1ccc2c(c1)[C@@H](NC(=O)Nc1cc(C)cnc1C1CCOCC1)[C@H](O)CC2(C)C (racemic)",
    "subject of test": "High affinity nerve growth factor receptor (Homo sapiens, UniProt P04629)",
    "result": "≤ 50 nM"
  },
  {
    "molecule": "COCCOc1cc2nccc(Oc3cc(C)c(NC(=O)c4cn(C)c(=O)n(-c5ccc(F)cc5)c4=O)cc3F)c2c2c1OCCO2",
    "subject of test": "High affinity nerve growth factor receptor (Homo sapiens, UniProt P04629)",
    "result": "< 50 nM"
  },
  {
    "molecule": "COCCOc1cc2nccc(Oc3cc(C(C)C)c(NC(=O)c4cn(C)c(=O)n(-c5ccc(F)cc5)c4=O)cc3F)c2c2c1OCCO2",
    "subject of test": "High affinity nerve growth factor receptor (Homo sapiens, UniProt P04629)",
    "result": "50 to 500 nM"
  }
]

IC50 reading for COCCN1C[C@@H](NC(=O)Nc2c(C)c(C)nn2-c2ccccc2)[C@H](c2ccccc2)C1 (relative stereo) : < 100 nM

IC50 reading for `COc1cc(Cc2c[nH]c3ncc(C#N)cc23)c(F)cc1OCc1nc2ccccc2[nH]1` : ≤ 10000 nM

IC50 reading for `CCOC(=O)c1nn(-c2ccccc2)c(NC(=O)N[C@@H]2CN(CCOC)C[C@H]2c2ccc(F)c(F)c2)c1C` : < 100 nM

###

Several reports have described IC50 for UniProtKB P04629; a selection of those results is presented here.
Report only the number, with the unit nM understood.

IC50 reading for `COc1cncnc1N1CCN(c2cc(-c3cc(OC4CCOCC4)c4c(N)n[nH]c4c3)ccc2C(N)=O)CC1` : 42.1

IC50 reading for `Fc1cccc(CNc2ccc3[nH]nc(/C=C/c4ccccn4)c3c2)c1` : 1.8

IC50 reading for `CC[C@H](Nc1ccc2ncn(-c3cc(OC(C)C)[nH]n3)c2n1)c1ccc(F)cn1` : 6

IC50 reading for `CC(=O)Nc1ccc(-c2cc(OC3CCOCC3)c3c(C)n[nH]c3c2)cc1N1CCN(C2CCCCC2)CC1` : 31.1

IC50 reading for COc1ccc(COc2ccc(Cn3cnc4cc(C5=CC6(O)CCCN5C6)cnc43)cc2OC)cn1 (stereo not drawn) : 360

IC50 reading for `CC(=O)N1CCN(c2cc(-c3cc(OC4CCCC4)c4c(N)n[nH]c4c3)ccc2C(N)=O)CC1` : 51.1

###

Several reports have described IC50 for UniProtKB P04629; a selection of those results is presented here.
Report only the number, with the unit nM understood.

[
  {
    "smiles structure": "CNC(=O)c1ccc(-c2cc(O[C@H](C)C(F)(F)F)c3c(N)n[nH]c3c2)cc1N1CCN(C(=O)C(C)(C)C)CC1",
    "measurement units": "nM",
    "IC50": 101
  }
]

IC50 reading for `Cc1cc(-n2cnc3ccc(N[C@@H](C)c4ncc(F)cn4)nc32)n[nH]1` : 61

IC50 reading for `CC(C)CN1CCc2ncc(F)cc2[C@H]2CCCN2c2ccn3ncc(c3n2)C(=O)N1` : 2.36
